# testedOn: T1, human FLT3 protein (human, UniProt P36888 27-541, limits assumed)
# T1 construct: protein coated in the screening ELISA; also called ELISA FLT3
# experiment: colorimetric ELISA, signal over control wells lacking FLT3
assayEndpoint: FLT3/control (ratio)

binder: FLL71 (VHH, llama anti-FLT3 variable domain; E. coli periplasmic extract) VHH: QVQLQESGGGLVQVGGSLMVSCAASGGTFSSYATGWFRQVPGKEREFIAGISRNSGRTYYAESVKGRFTISRDNAKNTVYLQMNTLKPDDTAVYYCAAARYFTRDAVYTSGDDYDYWGQGTQVTVSS
assayEndpoint: FLT3/control
unitText: ratio
measuredResult: 9
//
binder: FLL53 (VHH, llama anti-FLT3 variable domain; E. coli periplasmic extract) VHH: QVQLQESGGGLVQAGDSLRLSCAVSGRTFSGFGTGWFRQAPGKEREFVAAVSQSGGTTHYADSVKGRFTISRDNAKNTETLVYLQMNSLKPEDTAVYYCAGQVARAYDSSWYARGDYWGQGTQVTVSS
assayEndpoint: FLT3/control
unitText: ratio
measuredResult: 17

A = FLL101 (VHH, llama anti-FLT3 variable domain; E. coli periplasmic extract) VHH: QVQLQESGGGLVQAGGSLRLSCAASGVTFSINYIDWYRQAPGKQREWVAQITRDSNSFYADSVKGRFAISRDNAKNTVYLQMNNLKPEDTAVYYCRVLSYWGQGTQVTVSS
B = FLL57 (VHH, llama anti-FLT3 variable domain; E. coli periplasmic extract) VHH: QVQLQESGGGLVQAGGSLRLSCAASGSTFSKNYIDWYRQAPGKQREWVAQITSGGNTHYEPSLKGRFTISRDNAKNTAYLQMNSLKPEDTAVYYCRILDYWGQGTQVTVSS
Identify the entry with the larger FLT3/control. Options: A and B # respond with the chosen item's label B
